Below, each entry is listed alongside its reported phosphorylation enrichment.
target: Fyn (UniProt P06241); test: phosphorylation enrichment, bacterial display (enrichment ratio); higher = better substrate or ligand; peptides without Tyr show the background
Sequence (P06241 whole entry, looked up): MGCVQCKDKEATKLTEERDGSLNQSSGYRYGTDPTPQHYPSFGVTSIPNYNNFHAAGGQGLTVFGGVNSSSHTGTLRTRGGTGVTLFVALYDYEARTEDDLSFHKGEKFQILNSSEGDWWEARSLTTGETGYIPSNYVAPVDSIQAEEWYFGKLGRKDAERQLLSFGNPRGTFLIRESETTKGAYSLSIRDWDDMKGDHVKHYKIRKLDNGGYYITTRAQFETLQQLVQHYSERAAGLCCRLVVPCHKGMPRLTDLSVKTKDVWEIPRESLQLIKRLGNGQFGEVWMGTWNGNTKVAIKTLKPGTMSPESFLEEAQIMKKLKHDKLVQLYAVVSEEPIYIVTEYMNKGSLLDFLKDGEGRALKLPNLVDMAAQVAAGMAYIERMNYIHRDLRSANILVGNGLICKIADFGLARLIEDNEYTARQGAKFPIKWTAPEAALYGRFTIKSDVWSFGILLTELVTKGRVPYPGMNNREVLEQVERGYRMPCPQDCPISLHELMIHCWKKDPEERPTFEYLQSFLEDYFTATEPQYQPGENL
Just the number.

Below, each entry is followed by its recorded phosphorylation enrichment result.
item-sequence: SMEGLYSSAQD [CLIC5_Y111_T114A]
phosphorylation enrichment: 2.67
--
item-sequence: YDKEYYSVHNK [MET_Y1235]
phosphorylation enrichment: 0.455
--
item-sequence: ARKCKYFKKHE [NFIX_Y40_R38C]
phosphorylation enrichment: 0.463
--
item-sequence: HNGVSYFINLC [IGF2R_Y2024_YF]
phosphorylation enrichment: 0.659

Q) Quick one: give measured phosphorylation enrichment for SQINLYQDVML [ZNF806_Y33_A28S]
A) 0.965

Q) Look up and state reported phosphorylation enrichment for TKGNEYVFRVA
A) 0.496

Q) Indicate the recorded phosphorylation enrichment value for this sequence: IVGLLYRLLTE [SETX_Y1978]
A) 0.436

Q) Tell me measured phosphorylation enrichment for THPFLYLTLEI [MLH1_Y293_S295T] please.
A) 0.473

Q) Please indicate phosphorylation enrichment recorded for RPSELYFSKIG [SMG1_Y2253_YF]
A) 0.546

Q) // fetch phosphorylation enrichment given entry FMGVEYSSCDT [EPHA3_Y937_T933M]
A) 0.441

Q) Provide phosphorylation enrichment value for the following sequence: PDNKPYIFKVF [PIK3AP1_Y553_E551K]
A) 0.665

Q) Return reported phosphorylation enrichment. Input sequence: SDVSSYLEGQA [GCG_Y110]
A) 0.447

Q) Please look at this sequence and report its phosphorylation enrichment: LAETSYVKVLE [MAGEA1_Y276]
A) 0.479

Q) Give the measured phosphorylation enrichment for TQRPYYKGGGG [TYROBP_Y112]
A) 0.417

* * *

target: Grb2 SH2 (UniProt P62993); test: SH2 binding enrichment of the phosphorylated peptide, bacterial display (enrichment ratio); higher = better substrate or ligand; peptides without Tyr show the background
Sequence (P62993 whole entry, looked up): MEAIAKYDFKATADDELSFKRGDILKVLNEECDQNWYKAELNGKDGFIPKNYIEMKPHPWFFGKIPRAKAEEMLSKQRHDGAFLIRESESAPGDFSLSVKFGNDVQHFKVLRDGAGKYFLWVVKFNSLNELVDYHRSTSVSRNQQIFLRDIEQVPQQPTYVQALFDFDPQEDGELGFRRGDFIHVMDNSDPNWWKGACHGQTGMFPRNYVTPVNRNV
Decision: SH2 binding enrichment compared against 1; not below it gives rule met, below it gives rule not met.

item-sequence: FKDGQYWIRGW [ACSF3_Y466_R471W]
tested-system: Grb2 SH2 (UniProt P62993)
category: rule not met

Q) Decide: SH2 binding enrichment of IRTDAYVQAMT [RPE65_Y89_R91Q] >= 1?
A) rule not met

* * *

system: c-Abl (mouse); assay: phosphorylation enrichment, bacterial display (enrichment ratio); higher = better substrate or ligand; peptides without Tyr show the background
Response key: true means phosphorylation enrichment >= 0.8; false means phosphorylation enrichment < 0.8.

item-sequence: GESVSYLFSHV [PRPS1_Y311]
tested-system: c-Abl (mouse)
category: false

item-sequence: KPAFSYTSSST [SIM1_Y356]
tested-system: c-Abl (mouse)
category: false

item-sequence: CTTIHYNYMHN [TP53_Y234_C238H]
tested-system: c-Abl (mouse)
category: false

item-sequence: REIIAYQPFGK [PRKCG_Y529_P524R_YF]
tested-system: c-Abl (mouse)
category: false

item-sequence: TTPFNYSFIFK [RAB14_Y8_A4T_YF]
tested-system: c-Abl (mouse)
category: true

Q) Is reported phosphorylation enrichment greater than or equal to 0.8 here: TDKLFYIFTPG [SLC27A4_Y243_S247P_YF]
A) true

Q) Given the entry PLQHVYKIGGI [EEF1A2_Y254_D252H] , answer whether its phosphorylation enrichment meets or surpasses 0.8.
A) false

Q) Say whether MSSLPYMKVIF [SLC4A11_Y853_M856V] shows phosphorylation enrichment of 0.8 or more.
A) false

Q) Would you say SIKDKYVTALC [KCNH2_Y611_Y616C] shows phosphorylation enrichment at minimum 0.8?
A) false

Q) Decide: is the reported value of phosphorylation enrichment for ICANKYMVKSC [RPL10_Y75] equal to or greater than 0.8?
A) false
